Molecular target: P. falciparum apicoplast DNA polymerase (Pf-apPOL) (Plasmodium falciparum, UniProt Q8ILY1)
Sequence (Q8ILY1 entry or part of it): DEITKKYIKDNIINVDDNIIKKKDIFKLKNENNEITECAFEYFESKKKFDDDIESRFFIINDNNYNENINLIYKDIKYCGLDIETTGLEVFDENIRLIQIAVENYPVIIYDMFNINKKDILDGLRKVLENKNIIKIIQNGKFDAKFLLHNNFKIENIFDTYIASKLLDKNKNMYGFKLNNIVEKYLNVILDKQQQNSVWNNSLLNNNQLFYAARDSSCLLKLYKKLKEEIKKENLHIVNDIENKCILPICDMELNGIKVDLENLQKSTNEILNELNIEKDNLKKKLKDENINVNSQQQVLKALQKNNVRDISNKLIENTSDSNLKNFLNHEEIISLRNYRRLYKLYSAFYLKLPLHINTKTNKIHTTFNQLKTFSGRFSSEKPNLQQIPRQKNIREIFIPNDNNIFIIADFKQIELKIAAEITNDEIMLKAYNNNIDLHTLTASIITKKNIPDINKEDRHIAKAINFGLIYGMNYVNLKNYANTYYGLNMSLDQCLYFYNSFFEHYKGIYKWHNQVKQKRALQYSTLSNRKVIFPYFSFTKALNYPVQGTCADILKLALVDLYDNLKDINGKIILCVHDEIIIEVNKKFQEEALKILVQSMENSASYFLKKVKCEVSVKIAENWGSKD
Test: Fluorescence-based high-throughput DNA polymerase assay (molecular beacon), primary screen and dose-response;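 note: test concentration in µM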
Format: biochemical
Details: DRC-2; concentration 10; 90'
observation-type: % inhibition ApPOL 90' (%)
Report the value in % with no unit label.

smiles-repr: CCc1ccccc1NC(=O)c1ccc(-c2ncccc2NC(C)=O)cc1
tested-system: P. falciparum apicoplast DNA polymerase (Pf-apPOL) (Plasmodium falciparum, UniProt Q8ILY1)
% inhibition ApPOL 90' / %: 25

smiles-repr: O=C(O)c1nc(-c2ccccc2)nc2c1OCO2
tested-system: P. falciparum apicoplast DNA polymerase (Pf-apPOL) (Plasmodium falciparum, UniProt Q8ILY1)
% inhibition ApPOL 90' / %: 27

Now consider the entry below.
Record CCCCCc1c2c(cc(O)c1C(=O)O)OC(=O)c1c(cc(OC)cc1C(=O)CCCC)O2 : what is its % inhibition ApPOL 90' with P. falciparum apicoplast DNA polymerase (Pf-apPOL) (Plasmodium falciparum, UniProt Q8ILY1)? 51

All figures here come from paper PMC9090415.
